- Measured Target: MERTK (UniProt Q12866)
- Sequence (Q12866 whole entry, looked up): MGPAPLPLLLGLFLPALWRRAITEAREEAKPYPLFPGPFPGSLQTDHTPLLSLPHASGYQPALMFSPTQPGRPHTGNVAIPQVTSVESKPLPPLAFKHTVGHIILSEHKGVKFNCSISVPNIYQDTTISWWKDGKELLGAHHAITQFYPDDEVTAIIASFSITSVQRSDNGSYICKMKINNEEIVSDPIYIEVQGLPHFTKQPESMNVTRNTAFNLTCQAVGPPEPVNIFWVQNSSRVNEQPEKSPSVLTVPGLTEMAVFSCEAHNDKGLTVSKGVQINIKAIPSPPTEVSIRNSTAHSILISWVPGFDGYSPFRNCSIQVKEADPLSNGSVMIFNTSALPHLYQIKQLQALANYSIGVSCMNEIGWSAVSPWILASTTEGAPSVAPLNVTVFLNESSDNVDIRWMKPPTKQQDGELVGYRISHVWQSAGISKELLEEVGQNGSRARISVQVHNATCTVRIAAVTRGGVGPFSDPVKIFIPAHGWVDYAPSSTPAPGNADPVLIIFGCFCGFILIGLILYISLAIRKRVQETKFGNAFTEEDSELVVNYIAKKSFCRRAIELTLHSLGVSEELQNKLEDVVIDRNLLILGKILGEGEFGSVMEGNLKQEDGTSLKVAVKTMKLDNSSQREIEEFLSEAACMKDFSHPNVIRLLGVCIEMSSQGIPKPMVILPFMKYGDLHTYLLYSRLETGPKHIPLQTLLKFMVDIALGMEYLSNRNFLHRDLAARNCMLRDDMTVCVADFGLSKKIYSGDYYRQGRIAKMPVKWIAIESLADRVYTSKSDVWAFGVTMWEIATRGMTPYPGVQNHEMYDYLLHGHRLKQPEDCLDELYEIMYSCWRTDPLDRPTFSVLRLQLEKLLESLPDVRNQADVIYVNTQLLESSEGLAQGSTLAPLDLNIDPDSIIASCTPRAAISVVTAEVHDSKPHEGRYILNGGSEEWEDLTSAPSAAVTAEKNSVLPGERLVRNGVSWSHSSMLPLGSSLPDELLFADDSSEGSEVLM
- Procedure Text: phosphorylation enrichment, bacterial display (enrichment ratio); higher = better substrate or ligand; peptides without Tyr show the background;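 also: 11-residue human phosphosite peptides and single-mutation variants displayed on the E. coli surface, counted by deep sequencing, each peptide's frequency after selection divided by its frequency in the unselected input library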;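 also: frequency after pTyr selection over input frequency; kinase dosed for 20-30% of maximal phosphorylation in three min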
Measured Property: phosphorylation enrichment
Could you respond with only the numeric value?

Prompt: Recorded phosphorylation enrichment of GCKNHYDKDKP [THAP1_Y14_R13H] , please.
Response: 0.504

Prompt: Record request: phosphorylation enrichment value, item VRRRSYSAGNA [KANK1_Y324_K321R]
Response: 0.509

Prompt: Consider the sequence shown here: RVNSAYQEKVS [ACAN_Y100_D102E] What is its recorded phosphorylation enrichment?
Response: 0.5

Prompt: Requested field: phosphorylation enrichment. Item: ADELEYSRTGL [MMUT_Y287_G284E]
Response: 0.407

Prompt: Return reported phosphorylation enrichment; argument: FGVTLYPNSRE [MEP1A_Y472]
Response: 0.714

Prompt: Please look up its phosphorylation enrichment: MNLLGYRQVRS [CHST4_Y359_H361Q]
Response: 0.438

Prompt: Request the reported phosphorylation enrichment associated with DGNIDYAEFAK [MCFD2_Y138_Y135N]
Response: 0.51

Prompt: Given IQKKYYRAILE [CHD7_Y1218] , state its recorded phosphorylation enrichment.
Response: 0.341

Prompt: Item KKRRSYGNSSD [SELENOK_Y52] has what recorded phosphorylation enrichment?
Response: 0.51

Prompt: Suppose we examine the sequence SVVVPYERPEV [TP53_Y220_P222R] ; what phosphorylation enrichment value has been reported?
Response: 0.401

Prompt: What does the record list as phosphorylation enrichment for QGCSIYKDYYR [PLA2G2D_Y82] ?
Response: 0.67

Prompt: I am curious: what phosphorylation enrichment value has been reported for LSDGPYSNSYE [EPOR_Y485_P488S] ?
Response: 0.622

Prompt: Query (sequence): LGSNTYPFLLM [SAG_Y120_T125M] ; field requested: phosphorylation enrichment
Response: 0.36

Prompt: Name the recorded phosphorylation enrichment for TLKDVYDDGKF [RPS6KA3_Y483_YF] .
Response: 0.515

Prompt: GET /values?readout=phosphorylation enrichment&item= IGEGTYGQVYK [CDK13_Y716]
Response: 0.714

Prompt: For the sequence KIITDYFVDMK [MPP4_Y566_V562I_YF] , what phosphorylation enrichment is on record?
Response: 0.37

Prompt: Suppose we examine the sequence GCCSWYRGWAP [TIMP3_Y195_Y191C] ; what phosphorylation enrichment value has been reported?
Response: 0.459

Prompt: Need phosphorylation enrichment of ALWFIYSHTRS [ENG_Y614_YF] , thanks.
Response: 0.34

Prompt: Bench note: what phosphorylation enrichment did ETKGDYEKILV [ANXA1_Y335] show?
Response: 0.454

Prompt: # phosphorylation enrichment lookup, item GGGGSYNDFGN [HNRNPA1_Y312]
Response: 0.422

Prompt: Item under review: ESLRSYDVMDV [KCNQ2_Y562_P561S] . Reported phosphorylation enrichment?
Response: 0.523

Prompt: Entry KPMDTYYDSTR [DYNC2H1_Y2230] : reported phosphorylation enrichment = ?
Response: 0.498

Prompt: Query: phosphorylation enrichment; subject: CPPKVYELMRA [ABL2_Y515]
Response: 3.81

Prompt: Quick one: phosphorylation enrichment for RHTRSYDYTEG [FGF7_Y56_M59T] ?
Response: 0.514
